Origin of measurements: paper PMC7004148

# reported -TΔS; entries follow
- target: PqsR (Pseudomonas aeruginosa, UniProt Q9I4X0)
- procedureSummary: biochemical
- Type: binding
- Parameters: H6SUMOPqsRc87 and T265A mutant H6SUMOPqsRc87 for ITC studies was expressed; made in house; host or cells: E. coli BL21 (λDE3)
- conditionContext: Table S1
- Sequence (Q9I4X0 87-332): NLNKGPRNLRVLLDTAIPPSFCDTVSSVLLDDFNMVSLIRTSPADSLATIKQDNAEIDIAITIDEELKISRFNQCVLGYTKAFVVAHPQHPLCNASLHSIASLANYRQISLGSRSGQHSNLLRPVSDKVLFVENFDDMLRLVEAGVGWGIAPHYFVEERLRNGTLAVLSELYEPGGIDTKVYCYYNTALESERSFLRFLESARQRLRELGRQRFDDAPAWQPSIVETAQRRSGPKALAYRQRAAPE
valueKind: -TΔS

>>> experimentalresult("Nc1cc(C#CC2CC2)cc(C(F)(F)F)n1 [Compound 9]")
"-3.8 ± 0.6 kcal/mol"
>>> experimentalresult("Nc1cc(NCc2ccc(F)cc2F)cc(C(F)(F)F)n1 [Compound 13]")
"3.5 ± 0.8 kcal/mol"
>>> experimentalresult("Nc1cc(NCCc2ccc(F)cc2)cc(C(F)(F)F)n1 [Compound 19]")
"6.1 ± 0.7 kcal/mol"
>>> experimentalresult("Nc1cc(NCc2ccccc2)cc(C(F)(F)F)n1 [Compound 12]")
"3.2 ± 0.5 kcal/mol"
>>> experimentalresult("Nc1cc(NCc2ccc(F)cc2)cc(C(F)(F)F)n1 [Compound 11]")
"1.0 ± 0.8 kcal/mol"

###

- target: PqsR (Pseudomonas aeruginosa)
- procedureSummary: biochemical
- Type: binding
- Parameters: H6SUMOPqsRc87 and T265A mutant H6SUMOPqsRc87 for ITC studies was expressed; made in house; host or cells: E. coli BL21 (λDE3)
- conditionContext: Table S1; enthalpic efficiency
# reported EE; entries follow
valueKind: EE (kcal/mol)

>>> experimentalresult("Nc1cc(NCc2ccc(F)cc2F)cc(C(F)(F)F)n1")
0.55
>>> experimentalresult("Nc1cc(C#CC2CC2)cc(C(F)(F)F)n1")
0.23
>>> experimentalresult("Nc1cc(NCCc2ccc(F)cc2)cc(C(F)(F)F)n1")
0.64
>>> experimentalresult("Nc1cc(NCc2ccccc2)cc(C(F)(F)F)n1")
0.57
>>> experimentalresult("Nc1cc(NCCCc2ccc(F)cc2)cc(C(F)(F)F)n1")
0.50
>>> experimentalresult("Nc1cc(NCc2ccc(F)cc2)cc(C(F)(F)F)n1")
0.49

###

- target: PqsR (Pseudomonas aeruginosa, UniProt Q9I4X0)
- procedureSummary: PQS-mediated effect in P. aeruginosa
- Sequence (Q9I4X0 whole entry): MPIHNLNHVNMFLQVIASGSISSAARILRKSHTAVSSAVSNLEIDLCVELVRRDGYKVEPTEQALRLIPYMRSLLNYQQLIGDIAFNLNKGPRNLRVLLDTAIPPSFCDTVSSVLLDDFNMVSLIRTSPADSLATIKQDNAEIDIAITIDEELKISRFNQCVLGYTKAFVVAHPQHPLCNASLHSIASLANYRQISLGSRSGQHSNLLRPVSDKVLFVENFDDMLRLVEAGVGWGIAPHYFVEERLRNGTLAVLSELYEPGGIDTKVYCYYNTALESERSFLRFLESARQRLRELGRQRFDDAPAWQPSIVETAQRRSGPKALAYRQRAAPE
valueKind: EC50 (nM)

>>> experimentalresult("CCCCCCCc1[nH]c2ccccc2c(=O)c1O [PQS, 2‐heptyl‐3‐hydroxy‐4(1H)‐quinolone]")
24

###

- target: PqsR (Pseudomonas aeruginosa)
- procedureSummary: biochemical
- Format: binding
- Parameters: H6SUMOPqsRc87 and T265A mutant H6SUMOPqsRc87 for ITC studies was expressed; made in house; host or cells: E. coli BL21 (λDE3)
- conditionContext: Table 1; ITC at 298 K
- Method: 3.2 Expression and Purification of H6SUMOPqsRc87 H6SUMOPqsRc87 and T265A mutant H6SUMOPqsRc87 for ITC studies was expressed and purified as previously reported.[8,9] Briefly, E. coli BL21 (λDE3) transfected with the pSUMO3_ck4_pqsRC87 or pSUMO3_ck4_T265ApqsRC87 plasmid[8] were grown in LB medium containing 50 µg mL-1 kanamycin at 37 °C to an OD600 of approximately 0.8 and expression was induced with 0.2 mM IPTG for 16 h at 16 °C. […]
Output Criterion met for ΔG not less than -7 kcal/mol; output Criterion not met otherwise.

>>> assignedlabel("CC(C)(C)c1ccc(C(=O)NO)cc1")
"Criterion not met"
>>> assignedlabel("Nc1nnc(-c2cccc(C(F)(F)F)c2)o1")
"Criterion not met"
>>> assignedlabel("Nc1cc(Br)ccn1")
"Criterion met"
>>> assignedlabel("Nc1cccc(C(F)(F)F)n1")
"Criterion not met"

###

- target: PqsR (Pseudomonas aeruginosa, UniProt Q9I4X0)
- procedureSummary: biochemical
- Type: binding
- Design: H6SUMOPqsRc87 and T265A mutant H6SUMOPqsRc87 for ITC studies was expressed; made in house; host or cells: E. coli BL21 (λDE3)
- conditionContext: Table S1
valueKind: ΔG (kcal/mol)

>>> experimentalresult("Nc1cc(NCc2ccc(F)cc2F)cc(C(F)(F)F)n1")
-8.0
>>> experimentalresult("Nc1cc(C#CC2CC2)cc(C(F)(F)F)n1")
-6.9
>>> experimentalresult("Nc1cc(NCc2ccccc2)cc(C(F)(F)F)n1")
-8.1
>>> experimentalresult("Nc1cc(NCCc2ccc(F)cc2)cc(C(F)(F)F)n1")
-7.4
>>> experimentalresult("Nc1cc(NCc2ccc(F)cc2)cc(C(F)(F)F)n1")
-8.4

###

# reported LE; entries follow
- target: PqsR (Pseudomonas aeruginosa)
- procedureSummary: biochemical
- Format: binding
- Parameters: H6SUMOPqsRc87 and T265A mutant H6SUMOPqsRc87 for ITC studies was expressed; made in house; host or cells: E. coli BL21 (λDE3)
- conditionContext: Table S1; ligand efficiency
- Experimental: 3.2 Expression and Purification of H6SUMOPqsRc87 H6SUMOPqsRc87 and T265A mutant H6SUMOPqsRc87 for ITC studies was expressed and purified as previously reported.[8,9] Briefly, E. coli BL21 (λDE3) transfected with the pSUMO3_ck4_pqsRC87 or pSUMO3_ck4_T265ApqsRC87 plasmid[8] were grown in LB medium containing 50 µg mL-1 kanamycin at 37 °C to an OD600 of approximately 0.8 and expression was induced with 0.2 mM IPTG for 16 h at 16 °C. […]
valueKind: LE (kJ/mol)

>>> experimentalresult("Nc1cc(C#CC2CC2)cc(C(F)(F)F)n1")
1.8
>>> experimentalresult("Nc1cc(NCc2ccc(F)cc2F)cc(C(F)(F)F)n1")
1.67
>>> experimentalresult("Nc1cc(NCc2ccc(F)cc2)cc(C(F)(F)F)n1")
1.76
>>> experimentalresult("Nc1cc(NCc2ccccc2)cc(C(F)(F)F)n1")
1.8
>>> experimentalresult("Nc1cc(NCCc2ccc(F)cc2)cc(C(F)(F)F)n1")
1.46

###

- target: PqsR (Pseudomonas aeruginosa, UniProt Q9I4X0)
- procedureSummary: biochemical
valueKind: log10 Kd (log10 of the value in µM)

>>> experimentalresult("Nc1nnc(-c2cccc(C(F)(F)F)c2)o1")
0.11
>>> experimentalresult("Nc1cc(NCc2ccc(F)cc2F)cc(C(F)(F)F)n1")
0.11
>>> experimentalresult("Nc1cc(NCc2ccc(F)cc2)cc(C(F)(F)F)n1")
-0.22
>>> experimentalresult("Nc1cc(NCc2ccccc2)cc(C(F)(F)F)n1")
0.15
>>> experimentalresult("Nc1cc(Br)ccn1")
1.33
>>> experimentalresult("Nc1cccc(C(F)(F)F)n1")
0.49
>>> experimentalresult("CC(C)(C)c1ccc(C(=O)NO)cc1")
0.61
>>> experimentalresult("Nc1cc(NCCc2ccc(F)cc2)cc(C(F)(F)F)n1")
0.67
>>> experimentalresult("Nc1cccc(Br)n1")
1.00
>>> experimentalresult("Nc1cc(C#CC2CC2)cc(C(F)(F)F)n1")
0.88

###

- target: PqsR (Pseudomonas aeruginosa)
- procedureSummary: biochemical
- Format: binding
- Parameters: H6SUMOPqsRc87 and T265A mutant H6SUMOPqsRc87 for ITC studies was expressed; made in house; host or cells: E. coli BL21 (λDE3)
- conditionContext: Table 1; ITC at 298 K
Output met for −TΔS not less than 2 kcal/mol; output not met otherwise.

>>> assignedlabel("Nc1cccc(Br)n1")
"met"
>>> assignedlabel("Nc1nnc(-c2cccc(C(F)(F)F)c2)o1")
"not met"
>>> assignedlabel("Nc1cccc(C(F)(F)F)n1")
"met"
>>> assignedlabel("Nc1cc(Br)ccn1")
"not met"
>>> assignedlabel("CC(C)(C)c1ccc(C(=O)NO)cc1")
"not met"

###

- Tested on: pyocyanin in P. aeruginosa PA14
- procedureSummary: Pyocyanin assay in P. aeruginosa PA14 cultures
- Format: cell-based, Pseudomonas aeruginosa PA14
- conditionContext: read-out: Pyocyanin IC50; PA14 cultures, photometric quantification; mean of at least two independent experiments; SD<25 %
- Description: 6. Effects in P. aeruginosa Pyocyanin Assay. The inhibition of virulence factor pyocyanin was measured as described previously[26] following a procedure established by Essar et al.[28] […] Pyocyanin was determined photometrically after extraction of the cultures with chloroform and re-extraction with 0.2 M HCl. Protonated red colored pyocyanin was determined by measuring OD520 and normalizing to OD600. […] Figure S4: Inhibition of virulence factor pyocyanin was evaluated in the clinical isolate PA14. […]
valueKind: IC50

>>> experimentalresult("Nc1cc(NCc2ccc(F)cc2)cc(C(F)(F)F)n1")
"102 µM"

###

# reported EE; entries follow
- target: PqsR (Pseudomonas aeruginosa)
- procedureSummary: biochemical
- Format: binding
- Design: H6SUMOPqsRc87 and T265A mutant H6SUMOPqsRc87 for ITC studies was expressed; made in house; host or cells: E. coli BL21 (λDE3)
- conditionContext: Table 1; EE=−ΔH/(heavy atom count)
valueKind: EE (kJ/mol)

>>> experimentalresult("Nc1cc(Br)ccn1")
3.01
>>> experimentalresult("Nc1cccc(C(F)(F)F)n1")
4.39
>>> experimentalresult("CC(C)(C)c1ccc(C(=O)NO)cc1")
2.64
>>> experimentalresult("Nc1cccc(Br)n1")
4.9
>>> experimentalresult("Nc1nnc(-c2cccc(C(F)(F)F)c2)o1")
2.22
